- target.or.test.system: His6-BRD4 (BD1) (Homo sapiens, UniProt O60885)
- Construct: A pET28 plasmid containing residues 44–168 of BRD4 (BD1), a 6xHis tag, a TEV protease cleavage site; made in house; host or cells: E. coli Rosetta (D3)
- procedure.summary: Surface plasmon resonance (SPR) single-dose screening
- Type: binding
- Parameters: key: Positive: compounds were considered as SPR hits also when their average signal was further than two standard deviations apart from the average signal of the blank samples (1% DMSO)
- measurement.context: single dose 10 µM, n = 2
measured.parameter: SPR RESULT

Worked examples follow.
Cc1ncc(CNC(=O)c2c(-c3ccccc3)nn3ccccc23)c(O)n1: Positive
COc1cccnc1C(=O)N1CCC2(CC(NC(=O)c3occc3Br)c3ccccc3O2)C1 (centres unmarked): Positive
COc1ccc(-n2c(C)nnc2SCC(=O)NCc2cc(C)nc(C)c2)cc1: Negative
Cc1nonc1CC(=O)N1CC(CC(C)NC(=O)c2nsnc2O)C1 (centres unmarked): Negative
Cc1nnnn1-c1cc(F)cc(C(=O)N2CCN(C(=O)C(=O)NCC3CC3)C(C(C)C)C2)c1 (centres unmarked): Negative

Asked: Looking for the measured SPR RESULT of CCCc1c(C(=O)N2CCCC2Cn2cc(-c3cc(C)nc(C)c3)nn2)[nH]c(C)c1C(C)=O (centres unmarked) , can you help?
Given back: Negative

Asked: Name the recorded SPR RESULT for COc1cccc(-n2c(C)nnc2SCC(=O)N2CCCN(C(=O)c3cc(F)c[nH]3)CC2)c1 .
Given back: Negative

Asked: I would be grateful if you could share the reported SPR RESULT for Cc1ccc(-n2c(C)nnc2SCC(=O)N2CCOCCC23COC3)cc1 .
Given back: Negative

###

For each record, write down the corresponding RUs at [10 µM].
- target.or.test.system: His6-BRD4 (BD1) (Homo sapiens, UniProt O60885)
- Construct: A pET28 plasmid containing residues 44–168 of BRD4 (BD1), a 6xHis tag, a TEV protease cleavage site; made in house; host or cells: E. coli Rosetta (D3)
- procedure.summary: Surface plasmon resonance (SPR) single-dose screening
- Type: binding
- measurement.context: SPR, compound 10 µM, 1% DMSO, n = 2, decimal comma

Asked: What value of measured RUs at [10 µM] is listed for Cc1ncc(CNC(=O)c2c(-c3ccccc3)nn3ccccc23)c(O)n1 ?
Given back: 14,74 ± 1,95 RUs

Asked: # RUs at [10 µM] lookup, item CCOc1ccc(-n2nc(Cc3ccncc3)nc2-c2cn(C)c(=O)c3ccccc23)cc1
Given back: 38,73 ± 19,2 RUs

Asked: Requested field: RUs at [10 µM]. Item: CCn1nnc2cc(C(=O)N3C[C@@H](OC(C)=O)[C@@H](n4cc(CN5CCC(O)CC5)nn4)C3)ccc21
Given back: 14,42 ± 2,9 RUs

Asked: # query: RUs at [10 µM] of entry Cc1sc2c(c1C)C(c1ccc(Cl)cc1)=NC(CC(=O)OC(C)(C)C)c1nnc(C)n1-2 (centres unmarked) [Compound 3, reference compound]
Given back: 99,15 ± 6,82 RUs

Asked: Name the recorded RUs at [10 µM] for COc1ccc(-n2c(C)nnc2SCC(=O)Nc2cn(C)nc2C(N)=O)cc1 .
Given back: 9,07 ± 0,52 RUs

Asked: Return reported RUs at [10 µM]; argument: Cn1cc(C(=O)Nc2ccc(OCc3cnccn3)cc2)c2ccccc2c1=O
Given back: 34,2 ± 10,95 RUs

Asked: I would be grateful if you could share the reported RUs at [10 µM] for Cc1nonc1CC(=O)N1CC(CC(C)NC(=O)c2nsnc2O)C1 (centres unmarked) .
Given back: 11,06 ± 3,73 RUs

Asked: Quick one: RUs at [10 µM] for COc1cccc(-n2c(C)nnc2SCC(=O)N2CCCN(C(=O)c3cc(F)c[nH]3)CC2)c1 ?
Given back: 17,68 ± 18,73 RUs

###

- target.or.test.system: His6-BRD4 (BD1) (Homo sapiens, UniProt O60885)
- Construct: A pET28 plasmid containing residues 44–168 of BRD4 (BD1), a 6xHis tag, a TEV protease cleavage site; made in house; host or cells: E. coli Rosetta (D3)
- procedure.summary: Surface plasmon resonance (SPR) single-dose screening
- Format: binding
- Parameters: key: Positive: compounds were considered as SPR hits also when their average signal was further than two standard deviations apart from the average signal of the blank samples (1% DMSO)
- measurement.context: single dose 10 µM, n = 2
measured.parameter: SPR RESULT

CCn1nnc2cc(C(=O)N3C[C@@H](OC(C)=O)[C@@H](n4cc(CN5CCC(O)CC5)nn4)C3)ccc21: Positive
Cc1cc(C)n2nc(NC(=O)N3CCC(CCC(C)(C)C)C3)nc2n1 (centres unmarked): Positive
CC(=O)c1c(C)[nH]c(C(=O)N2CCCC(c3cn(CC4CC5CC5C4)nn3)C2)c1C (centres unmarked): Negative
CNC(=O)c1ccc(-n2nc(Cn3cccn3)nc2-c2cn(C)c(=O)c3ccccc23)cc1: Negative
Cc1nc(=O)c(CCC(=O)NC2CC(O)(Cn3cc(-c4cnn(C)c4C)nn3)C2)c[nH]1 (centres unmarked): Positive

Asked: Would you mind telling me what SPR RESULT value was observed for Cc1ccc(CNC(=O)c2ccc3nnc(C)c(C)c3c2)c(OC2CCOC2)c1 (centres unmarked) ?
Given back: Positive

Asked: What does the data say about its SPR RESULT? Entry: Cc1nnc(NC(=O)CNC(c2ccc(Cl)cc2)c2ccccc2C(C)C)s1 (centres unmarked)
Given back: Positive

Asked: What does the record list as SPR RESULT for CC(C)=CC(=O)NCCC1CCN(C(=O)c2cn(C)c(=O)c3ccccc23)C1 (centres unmarked) ?
Given back: Negative

###

- target.or.test.system: His6-BRD4 (BD1) (Homo sapiens)
- Construct: A pET28 plasmid containing residues 44–168 of BRD4 (BD1), a 6xHis tag, a TEV protease cleavage site; made in house; host or cells: E. coli Rosetta (D3)
- procedure.summary: Surface plasmon resonance (SPR) single-dose screening
- Format: binding
- measurement.context: SPR, compound 10 µM, 1% DMSO, n = 2, decimal comma
Answer each item with its documented RUs at [10 µM].

Asked: Reported RUs at [10 µM] for COc1ccc(-n2c(C)nnc2SCC(=O)Nc2ccc(C)c(Cl)c2Cl)cc1 [Compound 55] : what is it?
Given back: 11,56 ± 1,14 RUs

Asked: Can you look up the measured RUs at [10 µM] of COc1cccc(-n2c(C)nnc2SCC(=O)NC2(CO)CCCCCCC2)c1 [Compound 27] for me?
Given back: 28,33 ± 20,88 RUs

Asked: Find the recorded RUs at [10 µM] belonging to CCCc1c(C(=O)N2CCC(F)(F)C(CNC(=O)c3nc(C)c(C)s3)C2)[nH]c(C)c1C(C)=O (centres unmarked) [Compound 25] and report it.
Given back: 22,43 ± 8,33 RUs

Asked: Which RUs at [10 µM] value belongs to Cc1nnc2sc(C(=O)N(C)C3CN(C(=O)CCC(C)N(C)C)CC34CC4)c(N)c2c1C (centres unmarked) [Compound 59] ?
Given back: 13,73 ± 9,32 RUs

Asked: Which value of RUs at [10 µM] has been reported for COc1ccc(NS(=O)(=O)c2cc(C(=O)Nc3ccc4nnc(C(C)C)n4c3)ccc2F)cc1 [Compound 14] in the records?
Given back: 23,29 ± 9,67 RUs

Asked: # query: RUs at [10 µM] of entry COc1ccc(-n2c(C)nnc2SCC(=O)Nc2ccc(C)c(Cl)c2Cl)cc1 [Compound 12]
Given back: 78,35 ± 18,49 RUs

Asked: Consider the molecule shown here: Cc1cc(C)n2nc(NC(=O)N3CCC(CCC(C)(C)C)C3)nc2n1 (centres unmarked) [Compound 74] What is its recorded RUs at [10 µM]?
Given back: 52,94 ± 6,92 RUs

Asked: Name the reported RUs at [10 µM] value associated with the molecule CC(C)=CC(=O)NCCC1CCN(C(=O)c2cn(C)c(=O)c3ccccc23)C1 (centres unmarked) [Compound 23]
Given back: 5,93 ± 1,05 RUs

###

- target.or.test.system: His6-BRD4 (BD1) (Homo sapiens, UniProt O60885)
- Construct: A pET28 plasmid containing residues 44–168 of BRD4 (BD1), a 6xHis tag, a TEV protease cleavage site; made in house; host or cells: E. coli Rosetta (D3)
- procedure.summary: Surface plasmon resonance (SPR) single-dose screening
- Assay type: binding
- Set-up: key: Positive: compounds were considered as SPR hits also when their average signal was further than two standard deviations apart from the average signal of the blank samples (1% DMSO)
- measurement.context: single dose 10 µM, n = 2
measured.parameter: SPR RESULT

Cc1nnc(NC(=O)C2CCCN(C(=O)c3ccc(Br)c(F)c3)C2)s1 (stereo not shown) [Compound 79]: Positive
COc1ccc(-n2c(C)nnc2SCC(=O)N(c2ccccc2)C2CC2)cc1 [Compound 48]: Negative
COc1ccc(-n2c(C)nnc2SCC(=O)N2CC3(CCN(C)CC3)C2)cc1 [Compound 45]: Negative
CCCc1c(C(=O)NCc2cccc3c2OCCO3)[nH]c(C)c1C(C)=O [Compound 16]: Negative
COc1cccc(-n2c(C)nnc2SCC(=O)N2CC(n3cc(-c4ccc(F)cn4)nn3)C2)c1 [Compound 37]: Negative
Cc1cc(C)n2nc(NC(=O)NCCOC3(C)CCOCC3)nc2n1 [Compound 71]: Positive
Cc1cc(C(=O)NCCc2nc3cc(Cl)ccc3[nH]2)n2ncnc2n1 [Compound 78]: Positive
CCCc1c(C(=O)N2CCOC(CNC(=O)c3cc(C)ccn3)C2)[nH]c(C)c1C(C)=O (stereo not shown) [Compound 40]: Positive
COC(=O)c1cc(CNC(=O)C=Cc2cnc(C)[nH]c2=O)ccc1Cl [Compound 87]: Positive
CCCc1c(C(=O)N(C)C2CN(C(=O)c3cc(C)n[nH]3)C2)[nH]c(C)c1C(C)=O [Compound 96]: Positive

Note: attention shifts to another entry.
Asked: Which SPR RESULT is reported for this compound? Cn1cc(C(=O)Nc2ccc(OCc3cnccn3)cc2)c2ccccc2c1=O [Compound 42]
Given back: Positive

Cited source for all entries: paper PMC12316891
